Target: UniProt:P33527
Sequence (P33527 whole entry): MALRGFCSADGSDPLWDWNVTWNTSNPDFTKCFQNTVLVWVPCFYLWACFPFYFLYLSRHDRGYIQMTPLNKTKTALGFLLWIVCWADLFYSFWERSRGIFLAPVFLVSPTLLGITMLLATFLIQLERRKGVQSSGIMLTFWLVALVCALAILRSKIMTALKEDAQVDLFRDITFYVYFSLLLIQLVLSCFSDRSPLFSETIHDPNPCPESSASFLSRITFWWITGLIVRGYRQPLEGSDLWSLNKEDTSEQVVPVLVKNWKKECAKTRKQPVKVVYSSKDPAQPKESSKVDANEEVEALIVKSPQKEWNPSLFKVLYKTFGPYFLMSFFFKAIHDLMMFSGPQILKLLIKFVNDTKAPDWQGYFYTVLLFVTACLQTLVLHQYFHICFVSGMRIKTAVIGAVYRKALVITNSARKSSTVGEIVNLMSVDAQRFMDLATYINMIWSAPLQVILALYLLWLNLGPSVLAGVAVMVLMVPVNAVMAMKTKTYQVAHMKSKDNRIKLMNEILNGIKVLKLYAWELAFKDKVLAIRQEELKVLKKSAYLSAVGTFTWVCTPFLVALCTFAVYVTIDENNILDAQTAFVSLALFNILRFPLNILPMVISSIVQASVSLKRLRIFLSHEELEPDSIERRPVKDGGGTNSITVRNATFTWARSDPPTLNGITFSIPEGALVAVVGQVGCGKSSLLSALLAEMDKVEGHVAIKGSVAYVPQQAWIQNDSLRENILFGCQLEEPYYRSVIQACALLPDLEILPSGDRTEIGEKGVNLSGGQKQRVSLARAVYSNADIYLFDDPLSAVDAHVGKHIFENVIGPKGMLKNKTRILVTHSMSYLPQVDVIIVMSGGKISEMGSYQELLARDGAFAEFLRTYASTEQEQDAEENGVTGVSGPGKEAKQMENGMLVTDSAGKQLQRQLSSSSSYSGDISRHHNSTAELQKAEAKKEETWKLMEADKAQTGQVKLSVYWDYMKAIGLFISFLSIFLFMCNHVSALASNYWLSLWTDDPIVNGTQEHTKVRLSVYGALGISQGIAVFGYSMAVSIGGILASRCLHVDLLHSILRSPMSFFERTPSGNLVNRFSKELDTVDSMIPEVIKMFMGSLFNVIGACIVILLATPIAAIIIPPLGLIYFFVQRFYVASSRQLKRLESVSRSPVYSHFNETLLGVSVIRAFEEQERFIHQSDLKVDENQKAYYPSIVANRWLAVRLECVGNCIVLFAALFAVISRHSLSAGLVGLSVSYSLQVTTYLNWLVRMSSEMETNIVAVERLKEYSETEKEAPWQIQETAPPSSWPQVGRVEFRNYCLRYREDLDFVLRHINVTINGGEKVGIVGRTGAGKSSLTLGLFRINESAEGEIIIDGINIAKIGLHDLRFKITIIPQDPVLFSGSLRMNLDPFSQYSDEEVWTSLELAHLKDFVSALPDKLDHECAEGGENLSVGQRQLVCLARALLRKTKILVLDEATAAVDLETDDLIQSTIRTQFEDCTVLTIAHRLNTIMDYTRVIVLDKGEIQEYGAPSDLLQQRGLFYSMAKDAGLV
Settings: human, membrane vesicles from Sf9 cells transfected with human MRP1, […], 0.2 µM
endpointName: inhibition at 3 min, 200 µM

input: Need inhibition at 3 min, 200 µM, item CCc1oc2ccccc2c1C(=O)c1cc(Br)c(O)c(Br)c1 [Benzbromarone, benzbromarone, reference compound]
output: 104%
